System: OVCAR3 cells
experimental protocol: MTT proliferation assay, OVCAR3;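 also: compound given as an 8- or 10-point series, one day after plating, with exposure covering roughly 3-4 cell doublings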
Format: cell-based
test parameters: 5 days compound exposure, 1:3 serial dilution starting at 10 μM
*1 amine or outer side, *2 acyl side, *3 side chain or, on linkers, in order; H or OH if unused. Where a SMILES comes first, the peptide text is derived from it. Bridges are numbered along the chain shown (N, C = ends). [ ]: non-standard residue; d: D form. The star is where a group is joined. NMePhe(2-(4-MorPh),5-Cl) = CN[C@@H](Cc1cc(Cl)ccc1-c1ccc(N2CCOCC2)cc1)C(=O)O; X145 = CN1CCN(c2ccc(-c3ccc(F)cc3C[C@@H](C(=O)[*:2])N(C)[*:1])cc2F)CC1; X40 = CN1CCN(Cc2ccc(-c3ccc(Cl)cc3C[C@@H](C(=O)[*:2])N(C)[*:1])cc2)CC1; X82 = CN([C@@H](Cc1cc(Cl)ccc1-c1cnn(S(C)(=O)=O)c1)C(=O)[*:2])[*:1]; X153 = CN([C@@H](Cc1cc(F)ccc1-c1cnn(C2CCOCC2)c1)C(=O)[*:2])[*:1]; X68 = CN([C@@H](Cc1cc(Cl)ccc1-c1cnn(C2CC2)c1)C(=O)[*:2])[*:1]; NMehhhLys(Me) = CN([C@@H](CCCCCCCN(C)[*:3])C(=O)[*:2])[*:1]; X44 = Cc1nnc(-c2ccc(Cl)cc2C[C@@H](C(=O)[*:2])N(C)[*:1])o1; NMe(hhhLys) = CN([C@@H](CCCCCCCN[*:3])C(=O)[*:2])[*:1]; cBuCO(3,3-F2-1-CF3) = O=C(C1(C(F)(F)F)CC(F)(F)C1)*; X4 = Cc1ccc(Cl)cc1C[C@@H](C(=O)[*:2])N(C)[*:1]; Pro(trans-4-F) = O=C(O)[C@@H]1C[C@@H](F)CN1; Gly(cPr) = N[C@H](C(=O)O)C1CC1; X9 = C[C@@]1(C(=O)*)CC1(F)F
measured endpoint: GI50 (µM)
Give your result in µM as a bare value.

// worked examples, GI50 included
{"compound": "CC(C)C[C@@H]1NC(=O)[C@@H](N(C)C(=O)[C@@H](NC(=O)[C@@H]2C[C@@H](F)CN2C(=O)C2(C(F)(F)F)CC(F)(F)C2)C2CC2)CC=CCCCCNC(=O)[C@H](Cc2cc(Cl)ccc2C2=CCN(S(C)(=O)=O)CC2)N(C)C1=O [Example 23]", "GI50 (µM)": 0.21}
{"compound": "Cc1nnc(-c2ccc(Cl)cc2C[C@H]2C(=O)N(C)CCCCCCC[C@H](N(C)C(=O)[C@@H](NC(=O)[C@@H]3C[C@@H](F)CN3C(=O)C3(C(F)(F)F)CC(F)(F)C3)C3CC3)C(=O)N[C@@H](CC(C)C)C(=O)N2C)o1 [Example 162] ({cBuCO(3,3-F2-1-CF3)}-[Pro(trans-4-F)][Gly(cPr)][NMehhhLys(Me)]L[X44]; lactam 3-C)", "GI50 (µM)": 0.01}
{"compound": "CC(C)C[C@@H]1NC(=O)[C@@H](N(C)C(=O)[C@@H](NC(=O)[C@@H]2C[C@@H](F)CN2C(=O)C2(C(F)(F)F)CCC2)C2CC2)CC=CCCCCN(C)C(=O)[C@H](Cc2cc(F)cnc2OC2CC2)N(C)C1=O [Example 133]", "GI50 (µM)": 0.26}
{"compound": "CC(C)C[C@@H]1NC(=O)[C@@H](N(C)C(=O)[C@@H](NC(=O)[C@@H]2C[C@@H](F)CN2C(=O)C2(C(F)(F)F)CC(F)(F)C2)C2CC2)CC=CCCCCN(C)C(=O)[C@H](Cc2cc(Cl)ccc2Cl)N(C)C1=O [Example 14]", "GI50 (µM)": 0.2}
{"compound": "CC(C)C[C@@H]1NC(=O)[C@@H](N(C)C(=O)[C@@H](NC(=O)[C@@H]2C[C@@H](F)CN2C(=O)C2(C(F)(F)F)CC(F)(F)C2)C2CC2)CCCCCCCN(C)C(=O)[C@H](Cc2cc(F)ccc2-c2ccc(N3CCN(C)CC3)c(F)c2)N(C)C1=O [Example 401] ({cBuCO(3,3-F2-1-CF3)}-[Pro(trans-4-F)][Gly(cPr)][NMehhhLys(Me)]L[X145]; lactam 3-C)", "GI50 (µM)": 0.01}
{"compound": "Cc1ccc(Cl)cc1C[C@H]1C(=O)N(C)CCCCCCC[C@H](N(C)C(=O)[C@@H](NC(=O)[C@@H]2C[C@@H](F)CN2C(=O)C2(C(F)(F)F)CC(F)(F)C2)C2CC2)C(=O)N[C@@H](CC(C)C)C(=O)N1C [Example 263] ({cBuCO(3,3-F2-1-CF3)}-[Pro(trans-4-F)][Gly(cPr)][NMehhhLys(Me)]L[X4]; lactam 3-C)", "GI50 (µM)": 0.04}

Reported GI50 of CC(C)C[C@@H]1NC(=O)[C@@H](N(C)C(=O)[C@@H](NC(=O)[C@@H]2C[C@@H](F)CN2C(=O)C2(C(F)(F)F)CC(F)(F)C2)C2CC2)CCCCCCCN(C)C(=O)[C@H](Cc2cc(F)ccc2-c2cnn(C3CCOCC3)c2)N(C)C1=O [Example 93] ({cBuCO(3,3-F2-1-CF3)}-[Pro(trans-4-F)][Gly(cPr)][NMehhhLys(Me)]L[X153]; lactam 3-C) : 0.01

Entry CC(C)C[C@@H]1NC(=O)[C@@H](N(C)C(=O)[C@@H](NC(=O)[C@@H]2C[C@@H](F)CN2C(=O)C2(C(F)(F)F)CC(F)(F)C2)C2CC2)CCCCCCCN(C)C(=O)[C@H](Cc2cc(Cl)ccc2-c2ccc(CN3CCN(C)CC3)cc2)N(C)C1=O [Example 360] ({cBuCO(3,3-F2-1-CF3)}-[Pro(trans-4-F)][Gly(cPr)][NMehhhLys(Me)]L[X40]; lactam 3-C) — recorded GI50 = 0.01

Looking up CC(C)C[C@@H]1NC(=O)[C@@H](N(C)C(=O)[C@@H](NC(=O)[C@@H]2C[C@@H](F)CN2C(=O)C2(C(F)(F)F)CC(F)(F)C2)C2CC2)CCCCCCCNC(=O)[C@H](Cc2cc(Cl)ccc2-c2cnn(C3CC3)c2)N(C)C1=O [Example 67] ({cBuCO(3,3-F2-1-CF3)}-[Pro(trans-4-F)][Gly(cPr)][NMe(hhhLys)]L[X68]; lactam 3-C) , I found its GI50 recorded as 0.01

GI50 in this record for CC(C)C[C@@H]1NC(=O)[C@@H](N(C)C(=O)[C@@H](NC(=O)[C@@H]2C[C@@H](F)CN2C(=O)[C@]2(C)CC2(F)F)C2CC2)CCCCCCCN(C)C(=O)[C@H](Cc2cc(Cl)ccc2-c2ccc(N3CCOCC3)cc2)N(C)C1=O [Example 399] (X9-[Pro(trans-4-F)][Gly(cPr)][NMehhhLys(Me)]L[NMePhe(2-(4-MorPh),5-Cl)]; lactam 3-C) : 0.11

Looking up CC(C)C[C@@H]1NC(=O)[C@@H](N(C)C(=O)[C@@H](NC(=O)[C@@H]2C[C@@H](F)CN2C(=O)C2(C(F)(F)F)CC(F)(F)C2)C2CC2)CC=CCCCCNC(=O)[C@H](Cc2cc(Cl)cnc2OC2CC2)N(C)C1=O (single isomer, unassigned) [Example 102-P2] , I see its GI50 listed as 0.13

# compound CC(C)C[C@@H]1NC(=O)[C@@H](N(C)C(=O)[C@@H](NC(=O)[C@@H]2C[C@@H](F)CN2C(=O)C2(C(F)(F)F)CC(F)(F)C2)C2CC2)CCCCCCCN(C)C(=O)[C@H](Cc2cc(Cl)ccc2-c2cnn(S(C)(=O)=O)c2)N(C)C1=O [Example 238] ({cBuCO(3,3-F2-1-CF3)}-[Pro(trans-4-F)][Gly(cPr)][NMehhhLys(Me)]L[X82]; lactam 3-C) ; its GI50 = 0.02

###

target or test system: CyclinE1/CDK2 (Homo sapiens, UniProt P24864)
Construct: purchased Eurofins, discovery 14-475
experimental protocol: Fluorescence Polarization (FP) competitive binding assay, Cyclin E1/Cdk2;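 also: readings taken after two-hour equilibration at room temperature in HEPES buffer with NaCl, DTT, NP-40 and BSA, IC50 fitted from eight-concentration serial dilution series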
test parameters: 10 nM Cyclin E1/Cdk2, 2 nM FAM probe; average of 2-3 independent experiments; read-out: Cyclin E FP IC50
*1 amine or outer side, *2 acyl side, *3 side chain or, on linkers, in order; H or OH if unused. Where a SMILES comes first, the peptide text is derived from it. Bridges are numbered along the chain shown (N, C = ends). [ ]: non-standard residue; d: D form. The star is where a group is joined. X193 = CN([C@@H](Cc1cc(Cl)ccc1-c1cnc2nonc2c1)C(=O)[*:2])[*:1]; NMehhhLys(Me) = CN([C@@H](CCCCCCCN(C)[*:3])C(=O)[*:2])[*:1]; X44 = Cc1nnc(-c2ccc(Cl)cc2C[C@@H](C(=O)[*:2])N(C)[*:1])o1; NMe(hhhLys) = CN([C@@H](CCCCCCCN[*:3])C(=O)[*:2])[*:1]; Cyclobutanecarbonyl(1-CF3) = O=C(C1(C(F)(F)F)CCC1)*; cBuCO(3,3-F2-1-CF3) = O=C(C1(C(F)(F)F)CC(F)(F)C1)*; Pro(trans-4-F) = O=C(O)[C@@H]1C[C@@H](F)CN1; Gly(cPr) = N[C@H](C(=O)O)C1CC1
Listed here: items and their measured IC50.
Please give a number only; it is taken to be in nM.

{"compound": "CC(C)C[C@@H]1NC(=O)[C@@H](N(C)C(=O)[C@@H](NC(=O)[C@@H]2C[C@@H](F)CN2C(=O)C2(C(F)(F)F)CC(F)(F)C2)C2CC2)CC=CCCCCN(C)C(=O)[C@H](Cc2cc(F)ccc2-c2cnn(S(C)(=O)=O)c2)N(C)C1=O", "measured endpoint": "IC50", "unit": "nM", "data value": 890}
{"compound": "CC(C)C[C@@H]1NC(=O)[C@@H](N(C)C(=O)[C@@H](NC(=O)[C@@H]2C[C@@H](F)CN2C(=O)C2(C(F)(F)F)CC(F)(F)C2)C2CC2)CCCCCCCN(C)C(=O)[C@H](Cc2cc(Cl)ccc2-c2cnc3nonc3c2)N(C)C1=O [Example 171] ({cBuCO(3,3-F2-1-CF3)}-[Pro(trans-4-F)][Gly(cPr)][NMehhhLys(Me)]L[X193]; lactam 3-C)", "measured endpoint": "IC50", "unit": "nM", "data value": 4210}

From here, focus on the item given below.
According to the records, this compound Cc1nnc(-c2ccc(Cl)cc2C[C@H]2C(=O)NCCCCCCC[C@H](N(C)C(=O)[C@@H](NC(=O)[C@@H]3C[C@@H](F)CN3C(=O)C3(C(F)(F)F)CCC3)C3CC3)C(=O)N[C@@H](CC(C)C)C(=O)N2C)o1 [Example 161] ({Cyclobutanecarbonyl(1-CF3)}-[Pro(trans-4-F)][Gly(cPr)][NMe(hhhLys)]L[X44]; lactam 3-C) displays IC50 of 120
